Give measured Kd for each item. Keep answers brief.
# TARGET_DESC: T1, human IL-15Rα (human, UniProt Q13261 31-205, limits assumed)
# T1 construct: also called hIL-15Rα; IL-15 receptor alpha
# PROCEDURE_TEXT: SPR, steady state
One number for each entry, in nM.

Would you mind listing Kd for each of the following binders?
1. hIL-15 V49R/S7R (ligand) NWVNVIRDLKKIEDLIQSMHIDATLYTESDVHPSCKVTAMKCFLLELQRISLESGDASIHDTVENLIILANNSLSSNGNVTESGCKECEELEEKNIKEFLQSFVHIVQMFINTGGGGSGHHHHHHHHGGGLNDIFEAQKIEWHE
2. hIL-15 V49R/I68V (ligand) NWVNVISDLKKIEDLIQSMHIDATLYTESDVHPSCKVTAMKCFLLELQRISLESGDASIHDTVENLIVLANNSLSSNGNVTESGCKECEELEEKNIKEFLQSFVHIVQMFINTGGGGSGHHHHHHHHGGGLNDIFEAQKIEWHE
3. hIL-15 V49R/I68A (ligand) NWVNVISDLKKIEDLIQSMHIDATLYTESDVHPSCKVTAMKCFLLELQRISLESGDASIHDTVENLIALANNSLSSNGNVTESGCKECEELEEKNIKEFLQSFVHIVQMFINTGGGGSGHHHHHHHHGGGLNDIFEAQKIEWHE
4. hIL-15 V49R/D30M (ligand) NWVNVISDLKKIEDLIQSMHIDATLYTESMVHPSCKVTAMKCFLLELQRISLESGDASIHDTVENLIILANNSLSSNGNVTESGCKECEELEEKNIKEFLQSFVHIVQMFINTGGGGSGHHHHHHHHGGGLNDIFEAQKIEWHE
5. hIL-15 V49R/H32V (ligand) NWVNVISDLKKIEDLIQSMHIDATLYTESDVVPSCKVTAMKCFLLELQRISLESGDASIHDTVENLIILANNSLSSNGNVTESGCKECEELEEKNIKEFLQSFVHIVQMFINTGGGGSGHHHHHHHHGGGLNDIFEAQKIEWHE

Result string:
1. 77
2. 104
3. 113
4. 142
5. 99.8
